// provenance: patent US10435431B2

- MEASURED TARGET: Recombinant α1β2γ2 GABAA Receptors (Homo sapiens, UniProt P14867+P47870)
- Construct: expressed in transfected cells; host or cells: Ltk cells
- Sequence (P14867 28-456): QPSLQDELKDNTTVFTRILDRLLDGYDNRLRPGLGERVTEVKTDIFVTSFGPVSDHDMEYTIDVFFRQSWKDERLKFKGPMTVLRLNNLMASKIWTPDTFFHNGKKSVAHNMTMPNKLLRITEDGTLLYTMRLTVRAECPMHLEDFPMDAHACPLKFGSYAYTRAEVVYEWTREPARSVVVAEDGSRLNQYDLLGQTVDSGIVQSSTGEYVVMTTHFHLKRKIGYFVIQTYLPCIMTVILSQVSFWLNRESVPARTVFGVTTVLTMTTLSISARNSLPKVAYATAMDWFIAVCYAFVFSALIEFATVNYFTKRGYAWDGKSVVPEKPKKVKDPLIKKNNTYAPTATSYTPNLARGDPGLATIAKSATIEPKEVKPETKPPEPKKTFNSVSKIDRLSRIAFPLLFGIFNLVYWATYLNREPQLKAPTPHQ
- Sequence (P47870 25-512 limits assumed): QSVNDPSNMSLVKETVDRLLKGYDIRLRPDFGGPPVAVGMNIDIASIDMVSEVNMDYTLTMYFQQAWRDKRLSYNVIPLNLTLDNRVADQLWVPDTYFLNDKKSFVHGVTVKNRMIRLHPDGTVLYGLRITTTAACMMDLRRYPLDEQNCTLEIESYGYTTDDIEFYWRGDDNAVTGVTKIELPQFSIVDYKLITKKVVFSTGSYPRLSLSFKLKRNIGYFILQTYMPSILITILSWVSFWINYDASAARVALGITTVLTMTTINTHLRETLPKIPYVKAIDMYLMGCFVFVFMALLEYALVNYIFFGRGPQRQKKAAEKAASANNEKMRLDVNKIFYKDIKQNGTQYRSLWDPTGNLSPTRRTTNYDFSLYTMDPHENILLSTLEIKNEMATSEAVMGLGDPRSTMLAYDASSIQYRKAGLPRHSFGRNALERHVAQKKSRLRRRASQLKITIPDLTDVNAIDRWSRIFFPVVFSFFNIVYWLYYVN
- Sequence (P18507 40-475 partner): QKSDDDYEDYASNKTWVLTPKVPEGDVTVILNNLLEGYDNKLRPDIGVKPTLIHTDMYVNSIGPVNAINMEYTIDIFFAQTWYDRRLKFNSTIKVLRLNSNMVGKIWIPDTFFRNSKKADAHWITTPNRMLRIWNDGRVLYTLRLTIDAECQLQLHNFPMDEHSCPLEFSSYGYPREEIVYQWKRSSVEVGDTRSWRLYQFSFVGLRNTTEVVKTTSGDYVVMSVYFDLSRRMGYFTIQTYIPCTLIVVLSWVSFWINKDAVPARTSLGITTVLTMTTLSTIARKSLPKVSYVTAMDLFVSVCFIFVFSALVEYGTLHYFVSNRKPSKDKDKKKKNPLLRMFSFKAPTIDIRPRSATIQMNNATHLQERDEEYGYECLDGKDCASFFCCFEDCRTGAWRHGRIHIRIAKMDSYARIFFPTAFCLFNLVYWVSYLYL
- PROTOCOL: Patch clamp electrophysiology of recombinant α1β2γ2 GABAA receptors, potentiation of GABA mediated currents
- Format: cell-based
- EXPERIMENTAL CONTEXT: test article 1000 nM; Ltk cells; GABA EC10=0.5 μM; whole cell patch clamp
Listed next: entries and their corresponding % potentiation at 1000 nM.
Give just the number in %; leave the unit off.

Field: example entries. Status: answers known.
- GIVEN SMILES: "C[C@@]1(O)CC[C@H]2[C@H](CC[C@@H]3[C@@H]2CC[C@]2(C)[C@@H](C(=O)CO)CC[C@@H]32)C1"
  MEASURED TARGET: "Recombinant α1β2γ2 GABAA Receptors (Homo sapiens, UniProt P14867+P47870)"
  ASSAY VALUE: 163
- GIVEN SMILES: "C[C@@]1(O)CC[C@H]2[C@@H](CC[C@@H]3[C@@H]2CC[C@]2(C)[C@@H](C(=O)CO)CC[C@@H]32)C1"
  MEASURED TARGET: "Recombinant α1β2γ2 GABAA Receptors (Homo sapiens, UniProt P14867+P47870)"
  ASSAY VALUE: 130

[in] Quickly give me recorded % potentiation at 1000 nM for CC(=O)[C@H]1CC[C@H]2[C@@H]3CC[C@H]4C[C@](C)(O)CC[C@@H]4[C@H]3CC[C@]12C
[out] 157

[in] Indicate the recorded % potentiation at 1000 nM value for this compound: C[C@]12CC[C@H]3[C@@H](CC[C@H]4C[C@@](O)(C(F)F)CC[C@@H]43)[C@@H]1CC[C@@H]2C(=O)CO
[out] 0

----------
Measured IC50 accompanies every entry in the list below.
- MEASURED TARGET: [35S]-TBPS binding, rat brain cortical membranes
- PROTOCOL: Steroid inhibition of [35S]-TBPS binding
- EXPERIMENTAL CONTEXT: 2 nM [35S]-TBPS, in the presence of 5 μM GABA
- Experimental: Steroid Inhibition of TBPS Binding TBPS binding assays using rat brain cortical membranes in the presence of 5 μM GABA has been described (Gee et al, J. Pharmacol. Exp. Ther. 1987, 241, 346-353; Hawkinson et al, Mol. Pharmacol. 1994, 46, 977-985). Briefly, cortices are rapidly removed following decapitation of carbon dioxide-anesthetized Sprague-Dawley rats (200-250 g). […] Nonspecific binding is determined in the presence of 2 μM unlabeled TBPS and ranged from 15 to 25%. […]
Field format: number, assumed nM, no unit text.

# count of solved cases: 3
- GIVEN SMILES: "CC(=O)[C@H]1CC[C@H]2[C@@H]3CC[C@@H]4C[C@](O)(CF)CC[C@@H]4[C@H]3CC[C@]12C"
  MEASURED TARGET: "[35S]-TBPS binding, rat brain cortical membranes"
  ENDPOINT LABEL: "IC50"
  ASSAY VALUE: 100
- GIVEN SMILES: "COC[C@@]1(O)CC[C@H]2[C@H](CC[C@@H]3[C@@H]2CC[C@]2(C)[C@@H](C(C)=O)CC[C@@H]32)C1"
  MEASURED TARGET: "[35S]-TBPS binding, rat brain cortical membranes"
  ENDPOINT LABEL: "IC50"
  ASSAY VALUE: 41
- GIVEN SMILES: "COC[C@@]1(O)CC[C@H]2[C@@H](CC[C@@H]3[C@@H]2CC[C@]2(C)[C@@H](C(=O)CO)CC[C@@H]32)C1"
  MEASURED TARGET: "[35S]-TBPS binding, rat brain cortical membranes"
  ENDPOINT LABEL: "IC50"
  ASSAY VALUE: 94

[in] Supply measured IC50 of C[C@@]1(O)CC[C@H]2[C@H](CC[C@@H]3[C@@H]2CC[C@]2(C)[C@@H](C(=O)CO)CC[C@@H]32)C1 in your reply.
[out] 86

[in] Write down IC50 measured for item CC(=O)[C@H]1CC[C@H]2[C@@H]3CC[C@H]4C[C@](C)(O)CC[C@@H]4[C@H]3CC[C@]12C
[out] 93

----------
- MEASURED TARGET: [35S]-TBPS binding, rat brain cortical membranes
- PROTOCOL: Steroid inhibition of [35S]-TBPS binding
- EXPERIMENTAL CONTEXT: 2 nM [35S]-TBPS, in the presence of 5 μM GABA
ENDPOINT LABEL: IC50 (nM)
Respond numerically; units are nM and should not be typed.

Known IC50 results, listed for orientation:
- GIVEN SMILES: "COC[C@@]1(O)CC[C@H]2[C@H](CC[C@@H]3[C@@H]2CC[C@]2(C)[C@@H](C(=O)CO)CC[C@@H]32)C1"
  IC50 [nM]: 170
- GIVEN SMILES: "C[C@@]1(O)CC[C@H]2[C@@H](CC[C@@H]3[C@@H]2CC[C@]2(C)[C@@H](C(=O)CO)CC[C@@H]32)C1"
  IC50 [nM]: 220

Now take the following molecule into account.
[in] State its IC50 for this molecule: CC(=O)[C@H]1CC[C@H]2[C@@H]3CC[C@@H]4C[C@@](O)(C(F)F)CC[C@@H]4[C@H]3CC[C@]12C
[out] 33
